Items are presented alongside their recorded xmid (log10).
molecular target: SARS-CoV-2 Spike RBD-His Tag, Sino Biological (SARS-CoV-2)
Write the number on its own, no unit after it.

Would you please look over these solved cases?
vhh_tstrep_sars2_pjl1_L_130 (VHH) VHH: QVQLQESGGGLVQAGGSLRLSCAASGRTFSEYAMGWFRQAPGKEREFVATISWSGGATYHTDSVKARFTISRDNAKNTVYLQMNSLKPDDTAVYYCAAAGLGTVVSEWDYDYDYWGQGTQVTVSS :: -0.532
vhh_tstrep_sars2_pjl1_L_128 (VHH) VHH: QVQLQESGGGLVQAGGSLRLSCAASGRTFSEYAMGWFRQAPGKEREFVATISPSGGATYHTDSVKGRFTISRDNAKNTVYLQMNSLKPDDTAVYYCAAAGLGTVVSEWDYDYDYWGQGTQVTVSS :: -0.2
vhh_tstrep_sars2_pjl1_L_77 (VHH) VHH: QVQLQESGGGLVQAGGSLRLSCAASGRTFSEYAMGWFRQAPGKEREFVATISWSGGATYHTDSVKGRFTISRDNAKNTVYLQMNSLKPDDTAVYYCAAAGLGTVVSEWDYDYDYWGQGTQVTVSS :: -1.54

Then this binder:
Prompt: Tell me its xmid (log10) given vhh_tstrep_sars2_pjl1_L_129 (VHH) VHH: QVQLQESGGGLVQAGGSLRLSCAASGRTFSEYAMGWFRQAPGKEREFVATISWSGGATYHTTSVKGRFTISRDNAKNTVYLQMNSLKPDDTAVYYCAAAGLGTVVSEWDYDYDYWGQGTQVTVSS as the entry.
Completion: -1.34
